Reported IC50 values for the following compounds.
- measured-target: human CXCR3 (N-delta 4) (Homo sapiens, UniProt P49682)
- Construct: CD8 leader; Flag tag; expressed in transfected cells; membranes used
- Sequence (P49682 5-368 limits assumed): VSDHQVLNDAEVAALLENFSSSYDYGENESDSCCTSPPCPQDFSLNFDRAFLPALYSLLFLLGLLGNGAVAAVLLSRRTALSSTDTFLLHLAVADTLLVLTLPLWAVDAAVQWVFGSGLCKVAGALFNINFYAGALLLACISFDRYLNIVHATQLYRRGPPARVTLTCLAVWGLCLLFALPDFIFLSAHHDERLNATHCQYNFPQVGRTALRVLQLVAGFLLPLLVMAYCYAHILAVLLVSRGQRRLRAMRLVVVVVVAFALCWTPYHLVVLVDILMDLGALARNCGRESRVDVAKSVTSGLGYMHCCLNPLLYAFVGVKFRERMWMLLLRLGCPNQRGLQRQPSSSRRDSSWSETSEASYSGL
- assay-remarks: Human CXCR3 (N-delta 4) scintillation proximity assay (SPA), [125I] IP-10 binding
- measurement-context: IC50 rating; Ba/F3-hCXCR3 (N-delta 4) membranes, 25 pM [125I] IP-10

Consider the following illustrative entries.
In [3]: df
Out[3]:
                                smiles_data  attribute_measured        result
0  O=C(NCc1ccc(Cl)cc1Cl)c1cnc(N2CCN(C3CCN(Cc4ccc(F)cc4)CC3)CC2)c(Cl)c1                IC50  25 to 100 nM
1  O=C(NCc1ccc(Cl)cc1)c1cnc(N2CCN(C3CCN(Cc4ccc(F)cc4)CC3)CC2)c(Cl)c1                IC50  25 to 100 nM
2  O=C(NCc1ccc(Cl)cc1Cl)c1cnc(N2CCN(C3CCN(Cc4ccc(Br)cc4F)CC3)CC2)c(Cl)c1                IC50      > 100 nM
3  CC[C@H]1CN(c2ncc(C(=O)OC)cc2Cl)CCN1C1CCN(C(=O)c2ccc(Br)cc2)CC1                IC50      > 100 nM
4  CCC(=NOC)c1cnc(N2CCN(C3CCN(Cc4ccc(Cl)cc4F)CC3)[C@@H](CC)C2)c(Cl)c1                IC50      > 100 nM

// field: IC50; key: O=C(NCc1ccc(F)c(Cl)c1)c1cnc(N2CCN(C3CCN(Cc4ccc(Br)cc4)CC3)CC2)c(Cl)c1 ; value = 25 to 100 nM

Data point: N#Cc1ccc(CN2CCC(N3CCN(c4ncc(C(=O)NCc5ccc(Cl)c(Cl)c5)cc4Cl)CC3)CC2)cc1 ; IC50 = 25 to 100 nM

Reported IC50 for CC[C@H]1CN(c2ncc(CNC(=O)N(C(=O)NC3CC3)C3CC3)cc2Cl)CCN1C1CCN(Cc2ccc(Br)cc2F)CC1 was < 25 nM

CC[C@H]1CN(c2ncc(CN(C(=O)N(C)C)C3CC3)cc2Cl)CCN1C1CCN(Cc2ccc(Cl)cc2F)CC1 yielded IC50 of 25 to 100 nM

* * *

- measured-target: human CXCR3 (N-delta 4) (Homo sapiens, UniProt P49682)
- Construct: CD8 leader; Flag tag; expressed in transfected cells; membranes used
- assay-remarks: Human CXCR3 (N-delta 4) scintillation proximity assay (SPA), [125I] IP-10 binding
- measurement-context: IC50 rating; Ba/F3-hCXCR3 (N-delta 4) membranes, 25 pM [125I] IP-10
attribute-measured: IC50

The following molecules have reported results that may help.
>>> df
                                   molecule        result
0  C[C@H]1CN(c2ncc(C(=O)NCC3CCCCC3)cc2Cl)CCN1C1CCN(Cc2ccc(Cl)cc2)CC1 [compound 228]       < 25 nM
1  C[C@H]1CN(c2ncc(C(=O)Nc3cc[nH]n3)cc2Cl)CCN1C1CCN(Cc2ccc(Cl)cc2)CC1 [compound 312]  25 to 100 nM
2  O=C(NCc1ccc(F)cc1)c1cnc(N2CCN(C3CCN(Cc4ccc(Br)cc4F)CC3)CC2)c(Cl)c1 [compound 4]      > 100 nM
3  O=C(NCC(c1ccccc1)c1ccccc1)c1cnc(N2CCN(C3CCN(Cc4ccc(Cl)cc4)CC3)CC2)c(Br)c1 [compound 178]      > 100 nM
4  C[C@@H]1CN(c2ncc(C(=O)NCC3CCCCC3)cc2Cl)CCN1C1CCN(Cc2ccc(Cl)cc2)CC1 [compound 242]       < 25 nM
5  CC[C@H]1CN(c2ncc(CNC(=N)N)cc2Cl)CCN1C1CCN(Cc2ccc(Cl)cc2F)CC1 [compound 394]       < 25 nM
6  O=C(NCc1ccc(Cl)cc1)c1cnc(N2CCN(C3CCN(Cc4ccc(Br)cc4F)CC3)CC2)c(Cl)c1 [compound 48]      > 100 nM
7  O=C(NCc1ccc(Cl)c(Cl)c1)c1cnc(N2CCN(C3CCN(Cc4ccc(Br)cc4)CC3)CC2)c(Br)c1 [compound 284]  25 to 100 nM

Looking up CCCNC(=O)c1cnc(N2CCN(C3CCN(Cc4ccc(Cl)cc4)CC3)CC2)c(Cl)c1 [compound 192] , I found its IC50 recorded as > 100 nM

* * *

# reported pIC50; entries follow
- measured-target: human CXCR3 (N-delta 4) (Homo sapiens, UniProt P49682)
- Construct: CD8 leader; Flag tag; expressed in transfected cells; membranes used
- assay-remarks: Human CXCR3 (N-delta 4) scintillation proximity assay (SPA), [125I] IP-10 binding
- measurement-context: IC50 rating; Ba/F3-hCXCR3 (N-delta 4) membranes, 25 pM [125I] IP-10
- Text: The inventive compounds can readily be evaluated to determine activity at the CXCR3 receptors by known methods, such as, for example, development of a human CXCR3 (N-delta 4) Binding Assay. Cloning and expression of human CXCR3 (N-delta 4): The DNA encoding human CXCR3 was cloned by PCR using human genomic DNA (Promega, Madison, Wis.) as a template. […]
pIC50: −log10 of the molar value.

Guide cases for pIC50, answers given:
>>> df
                                   compound                           measured_target  attribute_measured        result
0  CC(c1ccc([N+](=O)[O-])cc1)N1CCC(N2CCN(c3ncc(C(=O)NCc4ccc(Cl)c(Cl)c4)cc3Cl)CC2)CC1 (stereo not shown)  human CXCR3 (N-delta 4) (Homo sapiens, UniProt P49682)               pIC50        < 7.00
1  O=C(NCc1ccc(Cl)cc1F)c1cnc(N2CCN(C3CCN(Cc4ccc(Cl)c(F)c4)CC3)CC2)c(Cl)c1  human CXCR3 (N-delta 4) (Homo sapiens, UniProt P49682)               pIC50        < 7.00
2  CCNC(=O)c1cnc(N2CCN(C3CCN(C(=O)c4ccc(Cl)cc4F)CC3)[C@@H](CC)C2)c(Cl)c1  human CXCR3 (N-delta 4) (Homo sapiens, UniProt P49682)               pIC50        > 7.60
3  N#Cc1ccc(CN2CCC(N3CCN(c4ncc(C(=O)NCc5ccc(Br)cc5)cc4Cl)CC3)CC2)cc1  human CXCR3 (N-delta 4) (Homo sapiens, UniProt P49682)               pIC50  7.00 to 7.60

Documented pIC50 of CC[C@H]1CN(c2ncc(C(=O)N(C)OC)cc2Cl)CCN1C1CCN(Cc2ccc(Cl)cc2F)CC1 : < 7.00

Looking up CCNC(=O)c1cnc(N2CCN(C3CCN(Cc4ccc(Cl)cc4)CC3)[C@@H](CC)C2)c(Cl)c1 , I found its pIC50 recorded as > 7.60

Reported pIC50 of CCC(=NO)c1cnc(N2CCN(C3CCN(Cc4ccc(Cl)cc4F)CC3)[C@@H](CC)C2)c(Cl)c1 : < 7.00

Quick note, pIC50 for CCOC(CNC(=O)c1cnc(N2CCN(C3CCN(Cc4ccc(Cl)cc4)CC3)[C@@H](C)C2)c(Cl)c1)OCC landed at < 7.00

For record O=C(NCc1ccc(C(F)(F)F)cc1)c1cnc(N2CCN(C3CCN(Cc4ccc([N+](=O)[O-])cc4)CC3)CC2)c(Cl)c1 the listed pIC50 is 7.00 to 7.60

pIC50 recorded for this compound, C[C@H]1CN(c2ncc(C(=N)N)cc2Cl)CCN1C1CCN(Cc2ccc(Cl)cc2)CC1 , is 7.00 to 7.60

* * *

- measured-target: human CXCR3 (N-delta 4) (Homo sapiens, UniProt P49682)
- Construct: CD8 leader; Flag tag; expressed in transfected cells; membranes used
- assay-remarks: Human CXCR3 (N-delta 4) scintillation proximity assay (SPA), [125I] IP-10 binding
- measurement-context: IC50 rating; Ba/F3-hCXCR3 (N-delta 4) membranes, 25 pM [125I] IP-10
pIC50: −log10 of the molar value.
As shown below, each of these compounds has a reported pIC50 value.

Observe how each entry below is paired with its result.
                                   compound        result
0  O=C(NCc1ccc(F)c(F)c1)c1cnc(N2CCN(C3CCN(Cc4ccc(Br)cc4)CC3)CC2)c(Br)c1 [compound 265]        > 7.60
1  CNC(=O)c1cnc(N2CCN(C3CCN([C@@H]4CCc5cc(Cl)ccc54)CC3)[C@@H](C)C2)c(Cl)c1 [compound 271]  7.00 to 7.60
2  COc1ccc(CN2CCC(N3CCN(c4ncc(C(=O)NCc5cc(Cl)cc(Cl)c5)cc4Cl)CC3)CC2)cc1 [compound 44]        < 7.00

// field: pIC50; key: O=C(NCc1ccc(Cl)cc1)c1cnc(N2CCN(C3CCN(Cc4ccc(F)cc4F)CC3)CC2)c(Cl)c1 [compound 87] ; value = < 7.00
